- target entity: Human AChE (Homo sapiens, UniProt P22303)
- Construct: purchased Sigma
- Sequence (P22303 32-614): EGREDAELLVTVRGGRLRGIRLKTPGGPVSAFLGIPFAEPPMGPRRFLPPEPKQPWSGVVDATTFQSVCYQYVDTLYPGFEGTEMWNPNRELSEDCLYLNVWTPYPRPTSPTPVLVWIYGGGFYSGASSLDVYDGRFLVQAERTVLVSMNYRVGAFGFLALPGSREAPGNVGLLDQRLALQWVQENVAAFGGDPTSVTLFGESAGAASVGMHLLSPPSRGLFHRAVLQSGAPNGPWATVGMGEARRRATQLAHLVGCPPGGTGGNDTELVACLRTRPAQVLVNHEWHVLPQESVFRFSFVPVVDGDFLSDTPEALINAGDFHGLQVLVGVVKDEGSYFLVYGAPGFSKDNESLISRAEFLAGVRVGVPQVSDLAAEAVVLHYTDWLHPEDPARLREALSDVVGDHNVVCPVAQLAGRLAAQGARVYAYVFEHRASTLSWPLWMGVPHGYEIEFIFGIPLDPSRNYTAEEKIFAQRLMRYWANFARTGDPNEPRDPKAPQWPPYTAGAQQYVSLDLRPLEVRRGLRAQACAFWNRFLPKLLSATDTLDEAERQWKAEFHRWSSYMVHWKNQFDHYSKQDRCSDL
- test summary: biochemical
- assay context: IC50 AChE
test readout: IC50 (µM)

1. CN1c2ccc(OC(=O)NC3CCCCC3)cc2[C@]2(C)CCO[C@H]12 | 0.3
2. CC[C@@H]1C[C@@]2(C)c3cc(OC(=O)Nc4ccccc4)ccc3N(C)[C@H]2O1 | 3.7
3. COc1ccc(NC(=O)Oc2ccc3c(c2)[C@]2(C)CCO[C@@H]2N3C)cc1 | 3.6
4. Cc1cc(C)cc(NC(=O)Oc2ccc3c(c2)[C@]2(C)CCO[C@@H]2N3C)c1 | 0.2
5. CN1c2ccc(OC(=O)Nc3ccncc3)cc2[C@]2(C)CCO[C@H]12 | 6
6. COc1cccc(NC(=O)Oc2ccc3c(c2)[C@]2(C)CCO[C@@H]2N3C)c1 | 0.1

----------
- target entity: human nSMase2 (Homo sapiens)
- Construct: expressed in transfected cells; host or cells: HEK293T
- Sequence (Q9NY59 whole entry): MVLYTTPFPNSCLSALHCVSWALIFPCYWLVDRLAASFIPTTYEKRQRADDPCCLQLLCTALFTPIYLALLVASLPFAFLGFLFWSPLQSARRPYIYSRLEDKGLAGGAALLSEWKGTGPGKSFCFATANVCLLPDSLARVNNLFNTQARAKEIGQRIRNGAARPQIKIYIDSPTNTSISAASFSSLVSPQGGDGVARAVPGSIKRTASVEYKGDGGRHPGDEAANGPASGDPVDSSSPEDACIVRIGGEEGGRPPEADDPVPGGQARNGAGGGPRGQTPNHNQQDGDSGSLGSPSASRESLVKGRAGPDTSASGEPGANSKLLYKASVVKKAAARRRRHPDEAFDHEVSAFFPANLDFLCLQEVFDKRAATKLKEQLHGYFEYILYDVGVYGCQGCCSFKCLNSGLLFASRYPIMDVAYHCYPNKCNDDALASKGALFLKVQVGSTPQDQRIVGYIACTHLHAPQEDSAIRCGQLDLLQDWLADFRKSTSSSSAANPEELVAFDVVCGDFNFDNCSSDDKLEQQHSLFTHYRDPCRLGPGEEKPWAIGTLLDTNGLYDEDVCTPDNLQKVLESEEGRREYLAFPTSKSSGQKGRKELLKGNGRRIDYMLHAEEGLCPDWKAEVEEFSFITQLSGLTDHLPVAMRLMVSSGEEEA
- test summary: biochemical
- Format: biochemical
- assay context: IC50 (nSMase2) Groups: A-D
test readout: IC50

1) COc1ccc2c(n1)[C@]1(C)CCO[C@@H]1N2 | > 50 µM
2) CN1c2ccc(OC(=O)NC3CCCCC3)cc2[C@]2(C)CCO[C@H]12 [drawing 36] | 1 to 10 µM
3) CN1c2ccc(OC(=O)Nc3ccccc3)nc2[C@]2(C)CCO[C@H]12 | 1 to 10 µM
4) C[C@@]12CCO[C@@H]1Nc1cccnc12 | > 50 µM
5) CC[C@H]1C[C@@]2(C)c3cc(OC(=O)Nc4ccccc4)ccc3N(C)[C@H]2O1 [drawing 42] | 1 to 10 µM
6) COc1ccc2c(n1)[C@]1(C)CCCO[C@@H]1N2 | > 50 µM
7) COc1cnc2c(c1)[C@]1(C)CCO[C@@H]1N2 | > 50 µM
8) Cc1cc(C)cc(NC(=O)Oc2ccc3c(c2)[C@]2(C)CCO[C@@H]2N3C)c1 [drawing 37] | 1 to 10 µM
9) CN1c2ccc(OC(=O)Nc3cncc(F)c3)cc2[C@]2(C)CCO[C@H]12 [drawing 63] | < 1 µM

----------
- target entity: Human AChE (Homo sapiens, UniProt P22303)
- Construct: purchased Sigma
- test summary: biochemical
- assay context: AChE activity
test readout: IC50

1) Cc1cc(C)cc(NC(=O)Oc2ccc3c(c2)[C@]2(C)CCO[C@@H]2N3C)c1 [drawing 37] | < 0.5 µM
2) CN1c2ccc(OC(=O)Nc3cncc(F)c3)cc2[C@]2(C)CCO[C@H]12 [drawing 63] | > 5 µM
3) CN1c2ccc(OC(=O)Nc3ccc(OC(F)(F)F)cc3)cc2[C@]2(C)CCO[C@H]12 [drawing 35] | > 5 µM
4) COc1cc(NC(=O)Oc2ccc3c(c2)[C@]2(C)CCO[C@@H]2N3C)cc(OC)c1 [drawing 38] | < 0.5 µM
5) CN1c2ccc(OC(=O)Nc3ccc(C(F)(F)F)cc3)cc2[C@]2(C)CCO[C@H]12 [drawing 64] | > 5 µM
6) COc1ccc(NC(=O)Oc2ccc3c(c2)[C@]2(C)CCO[C@@H]2N3C)cc1 [drawing 33] | 2.5 to 5 µM
7) CC[C@H]1C[C@@]2(C)c3cc(OC(=O)Nc4ccccc4)ccc3N(C)[C@H]2O1 [drawing 42] | 2.5 to 5 µM

The reported measurements were obtained from patent US20230113944A1.
